The measurements presented in this section are drawn from patent US10246429B2.

The following molecules are shown together with reported log10(IC50) values.
# system name: BACE1 (Homo sapiens (Human))
# Sequence (P56817 46-501, species assumed): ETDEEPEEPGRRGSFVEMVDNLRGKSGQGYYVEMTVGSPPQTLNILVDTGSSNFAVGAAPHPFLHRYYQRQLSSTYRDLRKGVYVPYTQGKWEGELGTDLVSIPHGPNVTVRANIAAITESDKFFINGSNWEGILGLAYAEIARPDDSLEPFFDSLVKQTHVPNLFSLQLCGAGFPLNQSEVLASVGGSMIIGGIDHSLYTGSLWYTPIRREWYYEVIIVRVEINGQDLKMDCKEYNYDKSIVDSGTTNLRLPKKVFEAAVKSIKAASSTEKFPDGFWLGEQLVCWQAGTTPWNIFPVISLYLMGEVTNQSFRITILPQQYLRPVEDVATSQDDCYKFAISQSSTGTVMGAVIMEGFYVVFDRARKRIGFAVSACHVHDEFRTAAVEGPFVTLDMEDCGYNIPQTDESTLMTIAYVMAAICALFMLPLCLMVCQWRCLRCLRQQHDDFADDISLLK
# method notes: BACE1 cell assay
# Type: cell-based
# run conditions: read-out: IC50 IP (μM) BACE1 Cell
observed property: log10(IC50) (log10 of the value in µM)

{"molecule": "C[C@]1(c2cc(/C=C(\\F)c3ccc(C#N)cn3)ccc2F)N=C(N)S[C@@]2(C(=O)N3CC[C@@H](O)C3)C[C@H]21", "system name": "BACE1 (Homo sapiens (Human))", "observed property": "log10(IC50)", "meas value": -3.15}
{"molecule": "C[C@H]1CN(C(=O)[C@]23C[C@H]2[C@@](C)(c2cc(/C=C(\\F)c4ccc(C#N)cn4)ccc2F)N=C(N)S3)C[C@H](C)O1", "system name": "BACE1 (Homo sapiens (Human))", "observed property": "log10(IC50)", "meas value": -2.59}
{"molecule": "CNC(=O)[C@]12C[C@H]1[C@@](C)(c1cc(/C=C(\\F)c3cnc(C#C[Si](C)(C)C)cn3)ccc1F)N=C(N)S2", "system name": "BACE1 (Homo sapiens (Human))", "observed property": "log10(IC50)", "meas value": -0.73}
{"molecule": "C#CCOc1cnc(/C(F)=C/c2ccc(F)c([C@@]3(C)N=C(N)S[C@@]4(C(=O)N5[C@H]6COC[C@@H]5COC6)C[C@H]43)c2)cn1", "system name": "BACE1 (Homo sapiens (Human))", "observed property": "log10(IC50)", "meas value": -3.00}
{"molecule": "C[C@@H]1CN(C(=O)[C@]23C[C@H]2[C@@](C)(c2cc(/C=C(\\F)c4ccc(C#N)cn4)ccc2F)N=C(N)S3)[C@H](C)CO1", "system name": "BACE1 (Homo sapiens (Human))", "observed property": "log10(IC50)", "meas value": -1.75}
{"molecule": "C[C@H]1[C@H](O)CCN1C(=O)[C@]12C[C@H]1[C@@](C)(c1cc(/C=C(\\F)c3ccc(C#N)cn3)ccc1F)N=C(N)S2", "system name": "BACE1 (Homo sapiens (Human))", "observed property": "log10(IC50)", "meas value": -3.30}
{"molecule": "Cc1noc(COc2cnc(/C(F)=C/c3ccc(F)c([C@@]4(C)N=C(N)S[C@@]5(C(=O)N(C)C)C[C@H]54)c3)cn2)n1", "system name": "BACE1 (Homo sapiens (Human))", "observed property": "log10(IC50)", "meas value": -2.70}
{"molecule": "CNC(=O)[C@]12C[C@H]1[C@@](C)(c1cc(/C=C(\\F)c3cnc(C#CC4CC4)cn3)ccc1F)N=C(N)S2", "system name": "BACE1 (Homo sapiens (Human))", "observed property": "log10(IC50)", "meas value": -0.92}
{"molecule": "CN(C)C(=O)[C@]12C[C@H]1[C@@](C)(c1cc(/C=C(\\F)C#Cc3ccccc3)ccc1F)N=C(N)S2", "system name": "BACE1 (Homo sapiens (Human))", "observed property": "log10(IC50)", "meas value": -0.47}
{"molecule": "CN(C)C(=O)[C@]12C[C@H]1[C@@](C)(c1cc(/C=C(\\F)c3ccc(C#CC4CC4)cn3)ccc1F)N=C(N)S2", "system name": "BACE1 (Homo sapiens (Human))", "observed property": "log10(IC50)", "meas value": -0.65}
{"molecule": "C[C@]1(c2cc(/C=C(\\F)c3ccc(Br)cn3)ccc2F)N=C(N)S[C@@]2(C(=O)N3CCOCC3)C[C@H]21", "system name": "BACE1 (Homo sapiens (Human))", "observed property": "log10(IC50)", "meas value": -2.47}
{"molecule": "C[C@@H]1COC[C@@H](C)N1C(=O)[C@]12C[C@H]1[C@@](C)(c1cc(/C=C(\\F)c3ccc(C#N)cn3)ccc1F)N=C(N)S2", "system name": "BACE1 (Homo sapiens (Human))", "observed property": "log10(IC50)", "meas value": -2.17}
{"molecule": "CC#CCOc1cnc(/C(F)=C/c2ccc(F)c([C@@]3(C)N=C(N)S[C@@]4(C(C)=O)C[C@H]43)c2)cn1", "system name": "BACE1 (Homo sapiens (Human))", "observed property": "log10(IC50)", "meas value": -2.24}
{"molecule": "C[C@@H]1CN=C([C@]23C[C@H]2[C@@](C)(c2cc(/C=C(\\F)c4ccc(C#N)cn4)ccc2F)N=C(N)S3)O1", "system name": "BACE1 (Homo sapiens (Human))", "observed property": "log10(IC50)", "meas value": -2.51}
{"molecule": "Cc1cnc([C@]23C[C@H]2[C@@](C)(c2cc(/C=C(\\F)c4ccc(C#N)cn4)ccc2F)N=C(N)S3)o1", "system name": "BACE1 (Homo sapiens (Human))", "observed property": "log10(IC50)", "meas value": -1.55}
{"molecule": "CC(C)[C@H]1CN(C(=O)[C@]23C[C@H]2[C@@](C)(c2cc(/C=C(\\F)c4ccc(C#N)cn4)ccc2F)N=C(N)S3)CCO1", "system name": "BACE1 (Homo sapiens (Human))", "observed property": "log10(IC50)", "meas value": -2.15}
{"molecule": "C#C[C@H](C)Oc1cnc(/C(F)=C/c2ccc(F)c([C@@]3(C)N=C(N)S[C@@]4(S(C)(=O)=O)C[C@H]43)c2)cn1", "system name": "BACE1 (Homo sapiens (Human))", "observed property": "log10(IC50)", "meas value": -1.40}
{"molecule": "C#CCOc1cnc(/C(F)=C/c2cnc(F)c([C@@]3(C)N=C(N)S[C@@]4(C(=O)N(C)C)C[C@H]43)c2)cn1", "system name": "BACE1 (Homo sapiens (Human))", "observed property": "log10(IC50)", "meas value": -2.66}
{"molecule": "COC(CNC(=O)[C@]12C[C@H]1[C@@](C)(c1cc(/C=C(\\F)c3ccc(C#N)cn3)ccc1F)N=C(N)S2)OC", "system name": "BACE1 (Homo sapiens (Human))", "observed property": "log10(IC50)", "meas value": -2.96}
{"molecule": "CC(C)[C@@H]1COCCN1C(=O)[C@]12C[C@H]1[C@@](C)(c1cc(/C=C(\\F)c3ccc(C#N)cn3)ccc1F)N=C(N)S2", "system name": "BACE1 (Homo sapiens (Human))", "observed property": "log10(IC50)", "meas value": -2.59}
{"molecule": "C#CCOc1cnc(/C(F)=C/c2ccc(F)c([C@@]3(C)N=C(N)S[C@@]4(c5ncc(C)o5)C[C@@H]34)c2)cn1", "system name": "BACE1 (Homo sapiens (Human))", "observed property": "log10(IC50)", "meas value": -0.81}
{"molecule": "C[C@H]1CN(C(=O)[C@]23C[C@H]2[C@@](C)(c2cc(/C=C(\\F)c4ccc(C#N)cn4)ccc2F)N=C(N)S3)CCO1", "system name": "BACE1 (Homo sapiens (Human))", "observed property": "log10(IC50)", "meas value": -2.57}
{"molecule": "CN(C)C(=O)[C@]12C[C@H]1[C@@](C)(c1cc(/C(F)=C/c3ccc(C#N)cc3)ccc1F)N=C(N)S2", "system name": "BACE1 (Homo sapiens (Human))", "observed property": "log10(IC50)", "meas value": -0.24}
{"molecule": "CC(C)[C@@H]1CN(C(=O)[C@]23C[C@H]2[C@@](C)(c2cc(/C=C(\\F)c4ccc(C#N)cn4)ccc2F)N=C(N)S3)CCO1", "system name": "BACE1 (Homo sapiens (Human))", "observed property": "log10(IC50)", "meas value": -2.15}
{"molecule": "CC1(C)CC2CC(C)(CN2C(=O)[C@]23C[C@H]2[C@@](C)(c2cc(/C=C(\\F)c4ccc(C#N)cn4)ccc2F)N=C(N)S3)C1 (stereo partly shown)", "system name": "BACE1 (Homo sapiens (Human))", "observed property": "log10(IC50)", "meas value": -1.81}
